- test.system: human FOXP3 (FOXP3-6His) (Homo sapiens, UniProt Q9BZS1)
- Construct: 6xHis (C); made in house; host or cells: E. coli BL21 (DE3)
- Sequence (Q9BZS1 1-431): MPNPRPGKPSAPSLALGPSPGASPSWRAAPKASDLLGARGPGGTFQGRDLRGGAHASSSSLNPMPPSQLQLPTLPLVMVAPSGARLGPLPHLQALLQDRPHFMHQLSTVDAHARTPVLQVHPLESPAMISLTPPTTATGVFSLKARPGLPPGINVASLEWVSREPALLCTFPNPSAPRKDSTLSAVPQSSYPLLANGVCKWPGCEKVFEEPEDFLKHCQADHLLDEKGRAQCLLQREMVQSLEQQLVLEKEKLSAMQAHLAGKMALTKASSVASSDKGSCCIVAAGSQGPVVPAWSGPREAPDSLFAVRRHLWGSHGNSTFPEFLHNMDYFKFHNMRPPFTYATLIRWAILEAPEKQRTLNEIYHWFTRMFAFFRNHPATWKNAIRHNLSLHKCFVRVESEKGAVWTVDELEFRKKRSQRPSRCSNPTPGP
- test.description: Peptide binding to FOXP3 by surface plasmon resonance (SPR)
- condition.description: peptides 1-20 μM; ratio to p60 (SEQ ID NO: 1)
experimental.endpoint: Binding to Foxp3 Ratio binding Peptide/p60 (fold change)
Entry rule: numbers only, all in fold change.

37 (RDFQSFRKMWKFFAM) [compound 37]    4.1
12 (RKFQSFRKMWPFFAM) [compound 12]    2.2

## Input Give the reported Binding to Foxp3 Ratio binding Peptide/p60 (fold change) for this substance. 20 (RDFQRFRKMWPFFAM) [compound 20]
## Output 3.7

## Input Give the reported Binding to Foxp3 Ratio binding Peptide/p60 (fold change) for this substance. 49 (cyclo(RDFQSFRKMWPFFAM); also: R1 and R2 form a linker birradical which is -C(=O)-) [compound 49]
## Output 5.0

----------
- test.description: Human liver microsomal stability
- Type: in vitro ADME
- condition.description: human liver microsomes, 60 min; read-out: % Remaining after 60 min
Where a SMILES comes first, the peptide text is derived from it. [ ]: non-standard residue; d: D form.
experimental.endpoint: remaining at 1 h, 1 μM (%)
Entry rule: numbers only, all in %.

Before answering, review these 2 worked examples.
CSCC[C@@H]1NC(=O)[C@H](C)NC(=O)[C@H](Cc2ccccc2)NC(=O)[C@H](Cc2ccccc2)NC(=O)[C@@H]2CCCN2C(=O)[C@H](Cc2c[nH]c3ccccc23)NC(=O)[C@H](CCSC)NC(=O)[C@H](CCCCN)NC(=O)[C@H](CCCNC(=N)N)NC(=O)[C@H](Cc2ccccc2)NC(=O)[C@H](C)NC(=O)[C@H](CCC(N)=O)NC(=O)[C@H](Cc2ccccc2)NC(=O)[C@@H](C)NC(=O)[C@H](CCCNC(=N)N)NC1=O [compound 51] (cyclo(R[dA]FQAFRKMWPFFAM))    46.1
CSCC[C@@H]1NC(=O)[C@H](C)NC(=O)[C@H](Cc2ccccc2)NC(=O)[C@H](Cc2ccccc2)NC(=O)[C@@H]2CCCN2C(=O)[C@H](Cc2c[nH]c3ccccc23)NC(=O)[C@H](CCSC)NC(=O)[C@H](CCCCN)NC(=O)[C@H](CCCNC(=N)N)NC(=O)[C@H](Cc2ccccc2)NC(=O)[C@H](C)NC(=O)[C@H](CCC(N)=O)NC(=O)[C@H](Cc2ccccc2)NC(=O)[C@H](C)NC(=O)[C@H](CCCNC(=N)N)NC1=O [compound 50] (cyclo(RAFQAFRKMWPFFAM))    0

Now for a further compound.
## Input Give the reported remaining at 1 h, 1 μM for this compound. CSCC[C@H](NC(=O)[C@H](C)NC(=O)[C@H](Cc1ccccc1)NC(=O)[C@H](Cc1ccccc1)NC(=O)[C@@H]1CCCN1C(=O)[C@H](Cc1c[nH]c2ccccc12)NC(=O)[C@H](CCSC)NC(=O)[C@H](CCCCN)NC(=O)[C@H](CCCNC(=N)N)NC(=O)[C@H](Cc1ccccc1)NC(=O)[C@H](CO)NC(=O)[C@H](CCC(N)=O)NC(=O)[C@H](Cc1ccccc1)NC(=O)[C@@H](CC(=O)O)NC(=O)[C@@H](N)CCCNC(=N)N)C(=O)O [compound 3] (H-R[dD]FQSFRKMWPFFAM-OH)
## Output 0

----------
- test.system: FOXP3/Runx1 heterodimerization (Homo sapiens, UniProt Q9BZS1)
- Construct: made in house; host or cells: E. coli BL21 (DE3)
- test.description: FOXP3/Runx1 heterodimerization inhibition (Alphascreen)
- Type: biochemical
- condition.description: read-out: Foxp3-Runx1 Inhibition % inhibition (2.5 μM)
Where a SMILES comes first, the peptide text is derived from it. [ ]: non-standard residue; d: D form.
Known inhibition at 2.5 µM of a selection of molecules
Entry rule: numbers only, all in %.

Before answering, review these 2 worked examples.
CSCC[C@H](NC(=O)[C@H](CCCCN)NC(=O)[C@H](CCCNC(=N)N)NC(=O)[C@H](Cc1ccccc1)NC(=O)[C@H](CO)NC(=O)[C@H](CCC(N)=O)NC(=O)[C@H](Cc1ccccc1)NC(=O)[C@H](C)NC(=O)[C@H](N)CCCNC(=N)N)C(=O)N[C@@H](Cc1c[nH]c2ccccc12)C(=O)N1CCC[C@H]1C(=O)N[C@@H](Cc1ccccc1)C(=O)N[C@@H](Cc1ccccc1)C(=O)N[C@@H](C)C(=O)N[C@H](CCSC)C(=O)O [compound 48] (H-[dR]AFQSFRKMWPFFA[dM]-OH; N-terminus and C-terminus assumed)    70
CSCC[C@H](NC(=O)[C@H](C)NC(=O)[C@H](Cc1ccccc1)NC(=O)[C@H](Cc1ccccc1)NC(=O)[C@@H]1CCCN1C(=O)[C@H](Cc1c[nH]c2ccccc12)NC(=O)[C@H](CCSC)NC(=O)[C@H](CCCCN)NC(=O)[C@H](CCCNC(=N)N)NC(=O)[C@H](Cc1ccccc1)NC(=O)[C@H](CO)NC(=O)[C@H](CCC(N)=O)NC(=O)[C@H](Cc1ccccc1)NC(=O)[C@@H](C)NC(=O)[C@H](CCCNC(=N)N)NC(=O)CNC(C)=O)C(N)=O [compound 14] (Ac-GR[dA]FQSFRKMWPFFAM-NH2; C-terminus assumed)    80

Now for a further molecule.
## Input Give the reported inhibition at 2.5 µM for this molecule. CSCC[C@@H]1NC(=O)[C@H](C)NC(=O)[C@H](Cc2ccccc2)NC(=O)[C@H](Cc2ccccc2)NC(=O)[C@@H]2CCCN2C(=O)[C@H](Cc2c[nH]c3ccccc23)NC(=O)[C@H](CCSC)NC(=O)[C@H](CCCCN)NC(=O)[C@H](CCCNC(=N)N)NC(=O)[C@H](Cc2ccccc2)NC(=O)[C@H](C)NC(=O)[C@H](CCC(N)=O)NC(=O)[C@H](Cc2ccccc2)NC(=O)[C@H](C)NC(=O)[C@H](CCCNC(=N)N)NC1=O [compound 50] (cyclo(RAFQAFRKMWPFFAM))
## Output 60

----------
- test.description: Human liver microsomal stability
- Type: in vitro ADME
- condition.description: human liver microsomes, 20 min; read-out: % Remaining after 20 min
Where a SMILES comes first, the peptide text is derived from it. [ ]: non-standard residue; d: D form.
Known remaining at 20 min, 1 μM of a selection of compounds

## Input Give the reported remaining at 20 min, 1 μM for this compound. CSCC[C@@H]1NC(=O)[C@H](C)NC(=O)[C@H](Cc2ccccc2)NC(=O)[C@H](Cc2ccccc2)NC(=O)[C@@H]2CCCN2C(=O)[C@H](Cc2c[nH]c3ccccc23)NC(=O)[C@H](CCSC)NC(=O)[C@H](CCCCN)NC(=O)[C@H](CCCNC(=N)N)NC(=O)[C@H](Cc2ccccc2)NC(=O)[C@H](C)NC(=O)[C@H](CCC(N)=O)NC(=O)[C@H](Cc2ccccc2)NC(=O)[C@@H](C)NC(=O)[C@H](CCCNC(=N)N)NC1=O [compound 51] (cyclo(R[dA]FQAFRKMWPFFAM))
## Output 48.7%

## Input Give the reported remaining at 20 min, 1 μM for this compound. CSCC[C@@H]1NC(=O)[C@H](C)NC(=O)[C@H](Cc2ccccc2)NC(=O)[C@H](Cc2ccccc2)NC(=O)[C@@H]2CCCN2C(=O)[C@H](Cc2c[nH]c3ccccc23)NC(=O)[C@H](CCSC)NC(=O)[C@H](CCCCN)NC(=O)[C@H](CCCNC(=N)N)NC(=O)[C@H](Cc2ccccc2)NC(=O)[C@H](C)NC(=O)[C@H](CCC(N)=O)NC(=O)[C@H](Cc2ccccc2)NC(=O)[C@@H](C)NC(=O)[C@H](CCCNC(=N)N)NCCCNC1=O
## Output 76.9%

## Input Give the reported remaining at 20 min, 1 μM for this compound. CSCC[C@H](NC(=O)[C@H](C)NC(=O)[C@H](Cc1ccccc1)NC(=O)[C@H](Cc1ccccc1)NC(=O)[C@@H]1CCCN1C(=O)[C@H](Cc1c[nH]c2ccccc12)NC(=O)[C@H](CCSC)NC(=O)[C@H](CCCCN)NC(=O)[C@H](CCCNC(=N)N)NC(=O)[C@H](Cc1ccccc1)NC(=O)[C@H](CO)NC(=O)[C@H](CCC(N)=O)NC(=O)[C@H](Cc1ccccc1)NC(=O)[C@@H](CC(=O)O)NC(=O)[C@@H](N)CCCNC(=N)N)C(=O)O [compound 3] (H-R[dD]FQSFRKMWPFFAM-OH)
## Output 0%

## Input Give the reported remaining at 20 min, 1 μM for this compound. CSCC[C@@H]1NC(=O)[C@H](C)NC(=O)[C@H](Cc2ccccc2)NC(=O)[C@H](Cc2ccccc2)NC(=O)[C@@H]2CCCN2C(=O)[C@H](Cc2c[nH]c3ccccc23)NC(=O)[C@H](CCSC)NC(=O)[C@H](CCCCN)NC(=O)[C@H](CCCNC(=N)N)NC(=O)[C@H](Cc2ccccc2)NC(=O)[C@H](C)NC(=O)[C@H](CCC(N)=O)NC(=O)[C@H](Cc2ccccc2)NC(=O)[C@@H](C)NC(=O)[C@H](CCCNC(=N)N)NCCNC(=O)CNC1=O
## Output 32.9%
